TGI values by entry
System: RPMI-8226 leukemia
Experiment: NCI tumour cell line growth inhibition, 48 h
Where a SMILES comes first, the peptide text is derived from it. [ ]: non-standard residue; d: D form.
PROPERTY_NAME: TGI

{"COMPOUND": "CSCC[C@H](NC(=O)[C@@H](N)CC(N)=O)C(=O)N[C@@H](Cc1c[nH]c2ccccc12)C(=O)N[C@@H](CCC(N)=O)C(=O)N[C@@H](CCC(=O)O)C(=O)N[C@H](C(=O)NCC(=O)N[C@@H](CCCCN)C(=O)N[C@H](C)C(=O)O)C(C)C (H-NMWQEVGK[dA]-OH)", "TESTED_SYSTEM": "RPMI-8226 leukemia", "MEASUREMENT": "> 100 µM"}
{"COMPOUND": "Cc1ccc(C)c2c1n1c(=O)n(C)c(=O)n21", "TESTED_SYSTEM": "RPMI-8226 leukemia", "MEASUREMENT": "> 100 µM"}
{"COMPOUND": "N/C(CC(=O)NOC(=O)c1ccccc1)=N/OC(=O)c1ccccc1", "TESTED_SYSTEM": "RPMI-8226 leukemia", "MEASUREMENT": "> 100 µM"}

====

Test system: NCI-H226 lung
Experiment: NCI tumour cell line growth inhibition, 48 h

{"COMPOUND": "CCOC(=O)CC(C)C1(C=O)CCCCC1=O (stereo unspecified)", "MEASUREMENT_UNITS": "µM", "CENSOR_SYMBOL": ">", "TGI": 100}
{"COMPOUND": "CN1CCN(c2nc3cc(F)ccc3n3cccc23)CC1", "MEASUREMENT_UNITS": "µM", "CENSOR_SYMBOL": "=", "TGI": 54.1}
{"COMPOUND": "CCOc1ccccc1N=Cc1c2ccccc2cc2ccccc12", "MEASUREMENT_UNITS": "µM", "CENSOR_SYMBOL": ">", "TGI": 100}
{"COMPOUND": "CC(=O)c1c(O)cc(O)c(-c2c(C)cc(O)c3c2C(=O)c2cccc(O)c2C3=O)c1O", "MEASUREMENT_UNITS": "µM", "CENSOR_SYMBOL": "=", "TGI": 58.1}
{"COMPOUND": "Cc1c2ccccc2c(C)n2c1nc1cc(Cl)c(Cl)cc12", "MEASUREMENT_UNITS": "µM", "CENSOR_SYMBOL": ">", "TGI": 100}
{"COMPOUND": "N=C1C=C(N)C(=O)c2ccccc21", "MEASUREMENT_UNITS": "µM", "CENSOR_SYMBOL": "=", "TGI": 0.394}

====

// TGI lookup, one value per entry
System: MOLT-4 leukemia
Assay: NCI tumour cell line growth inhibition, 48 h
PROPERTY_NAME: TGI

{"COMPOUND_STRUCTURE": "O=C1c2cc3ncsc3cc2C(=O)c2c(O)ccc(O)c21", "PROPERTY_NAME": "TGI", "MEASUREMENT": "> 100 µM"}
{"COMPOUND_STRUCTURE": "O=C(CN1CCN(c2ccccn2)CC1)N1CCCn2c1nc1ccccc1c2=O", "PROPERTY_NAME": "TGI", "MEASUREMENT": "> 100 µM"}
{"COMPOUND_STRUCTURE": "c1ccc(OCc2nnc(CCCCCCCCc3nnc(COc4ccccc4)o3)o2)cc1", "PROPERTY_NAME": "TGI", "MEASUREMENT": "> 100 µM"}
{"COMPOUND_STRUCTURE": "Cc1ccc(C)c(NC(=O)C(=O)Nn2c(=S)[nH]c3ccccc3c2=O)c1", "PROPERTY_NAME": "TGI", "MEASUREMENT": "> 100 µM"}
{"COMPOUND_STRUCTURE": "CS(=O)(=O)CCNCc1ccoc1-c1ccc2ncnc(Nc3ccc(OCc4ccccc4)cc3)c2c1", "PROPERTY_NAME": "TGI", "MEASUREMENT": "> 25 µM"}
{"COMPOUND_STRUCTURE": "O=C1/C(=C/c2ccc(O)cc2)Oc2ccccc21", "PROPERTY_NAME": "TGI", "MEASUREMENT": "> 100 µM"}
